# Test system: KM12 colon
# Protocol Text: NCI tumour cell line growth inhibition, 48 h; in the data active means GI50 below about 0.43 µM; inactive means the rest
Outcome codes: YES for active, NO for inactive

| Compound | Category Label |
| --- | --- |
| N#CSc1cc(-c2nc3ccccc3o2)ccc1N | NO |
| CCN(CC)c1ccc(/C=C2/NC(=O)NC2=O)cc1 | NO |
| CCn1c(-c2nonc2N)nc2c(C#CC(C)(C)O)ncc(OCC3CCNCC3)c21 | NO |
| O=C1c2ccccc2-c2c1c1ccccc1c(=O)n2CCCNCCO | NO |
| c1ccc(-c2nn(-c3ccccc3)[n+](-c3ccccc3-c3ccccc3)n2)cc1 | NO |
| Cn1ccnc1C(=O)/C=C/c1ccc(CC(=O)Nc2cc(F)c(F)c(F)c2)cc1 | NO |
| Clc1ccc2c(NCCNc3nc(Cl)nc4ccccc34)ccnc2c1 | NO |
| c1cc[c]([Sn]([O]c2cccc3cccnc23)([c]2ccccc2)[c]2ccccc2)cc1 | YES |
| Cn1cc(C2=C(c3cccc(Cl)c3)C(=O)NC2=O)c2ccccc21 | NO |
| COC(=O)CCCCCCCCC(=O)c1c(C)[nH]c(/C=C2\N=C(c3ccc[nH]3)C=C2OC)c1C | NO |
| COc1cc2cc(Oc3ccc(NC(=O)Nc4cc(C(F)(F)F)cc(C(F)(F)F)c4)cc3)c(C)nc2cc1OCCN1CCCCC1 | NO |
| COC(=O)[C@@H](C)C[C@H](Cc1ccccc1)NC(=O)c1csc([C@@H](C[C@H](C(C)C)N(C)C(=O)[C@@H](NC(=O)CN(C)C)C2CC2)OC(C)=O)n1 | YES |
| O=C(Nc1ccc(Oc2cccc(Cl)c2)c(Cl)c1)c1cccnc1 | NO |
| COC(=O)C([O][Ge]([CH3])([CH3])[CH3])c1ccccc1 (stereo not given) | NO |
| COc1ccc2c(c1)/C(=N/OC(C)=O)c1c-2c(Nc2ccc(/C(C)=N/OC(C)=O)cc2)nc2ccccc12 | NO |

---

# System: COLO 205 colon
# Protocol Text: NCI tumour cell line growth inhibition, 48 h
*1 amine or outer side, *2 acyl side, *3 side chain or, on linkers, in order; H or OH if unused. Where a SMILES comes first, the peptide text is derived from it. [ ]: non-standard residue; d: D form. The star is where a group is joined. X12 = NCCCCC(N[*:1])C(=O)CN1CCCC1C(=O)[*:2]; Pentadecanoyl = CCCCCCCCCCCCCCC(=O)*
Reported values of TGI for individual entries

| Compound | TGI |
| --- | --- |
| CC(C)=CCCC1(C)C=Cc2c(ccc3c2[nH]c2cc(O)c(C)cc23)O1 (configuration not stated) | > 2.5 µM |
| CC(C)S(=O)(=O)ON1C(=O)c2ccc([N+](=O)[O-])cc2C1=O | > 100 µM |
| COc1ccc2nc(NC(=O)C(=O)C(C#N)c3ccc(CC#N)cc3)sc2c1 (configuration not stated) | > 100 µM |
| COc1ccc(C(OCC2OC(n3ccc(Oc4c(F)c(F)c(F)c(F)c4F)nc3=O)CC2OP(OCCC#N)N(C(C)C)C(C)C)(c2ccccc2)c2ccc(OC)cc2)cc1 (configuration not stated) | > 100 µM |
| Nc1ccc(Sc2ccc3c4c2cccc4c(=O)n2c4ccccc4nc32)cc1 | 27.2 µM |
| CC1C/C(=C\c2ccc(O)c(O)c2)C(=O)/C(=C/c2ccc(O)c(O)c2)C1 (configuration not stated) | 32.2 µM |
| Clc1cc(-c2csc(Cl)c2)cs1 | > 100 µM |
| Cc1cc(=O)oc2c(CN(CCCl)CCCl)c(O)ccc12 | 71.7 µM |
| COc1cc(OC)cc(-c2nc3ccccc3c(=O)[nH]2)c1 | > 100 µM |
| COc1ccccc1NC(=O)NS(=O)(=O)c1ccccc1 | > 100 µM |
| CC(C)N(C(=O)C12C3C4C5C3C1(C(=O)N(C(C)C)C(C)C)C5C42)C(C)C (configuration not stated) | > 60.6 µM |
| CCOC(=O)CCN1C(=O)c2c(NC(=O)C(=O)O)cccc2S1(=O)=O | > 100 µM |
| CCCCCCCCCCCCCCC(=O)NC(CCCCN)C(=O)CN1CCCC1C(=O)NCC(=O)NC(Cc1ccccc1)C(=O)N1CCCC1C(=O)NC(CO)C(=O)NC(Cc1ccc(O)cc1)C(=O)NC(CCCCN)C(=O)NC(CC(C)C)C(=O)NC(CCCN=C(N)N)C(=O)N1CCCC1C(=O)NCC(N)=O (configuration not stated) (Pentadecanoyl-[X12]GFPSYKLRPG-NH2; configuration not given here) | 33.8 µM |
| O=[P+](O)c1cc2c3ccccc3ccc2c2ccccc12 | > 100 µM |
| CC(=O)[O-].CC(=O)[O-].CC(=O)[O-].CC(=O)[O-].CO.CO.CO.[Rh+2].[Rh+2].c1ccc(-c2ccccn2)nc1 | > 100 µM |
| CN1CCN(Cc2ccc(NC(=O)c3cncc(C#Cc4cncc5[nH]ncc45)c3)cc2C(F)(F)F)CC1 | 3.56 µM |
| O=C(/C=C/c1ccc(OCCCOc2ccc(/C=C/C(=O)c3ccc(Cl)cc3)cc2)cc1)c1ccc(Cl)cc1 | > 100 µM |

---

# Tested on: COLO 205 colon
# Protocol Text: NCI tumour cell line growth inhibition, 48 h
Recorded TGI for the following compounds
Measured Parameter: TGI

| Compound Structure String | Measured Parameter | Result |
| --- | --- | --- |
| S=C1NNC(=S)NN1 | TGI | > 1 µM |
| CC(C)c1cc(C(C)C)c(B(c2ccccc2)c2ccccc2)c(C(C)C)c1Br | TGI | > 100 µM |
| O=C1/C(=C/c2ccc(Cl)cc2)COc2ccc(Br)cc21 | TGI | > 100 µM |
| CCc1cc(Nc2nccc(-c3c(-c4ccc(OC)c(C(=O)Nc5c(F)cccc5F)c4)nc4ccccn34)n2)c(OC)cc1N1CCC(N2CCN(S(C)(=O)=O)CC2)CC1 | TGI | > 100 µM |
| CC(=O)O[C@H]1Cc2c([nH]c3ccccc23)[C@@H](c2ccc(Cl)cc2)N1C(=O)CCNC(C)(C)C | TGI | 7.7 µM |

---

// values below are reported TGI
# Tested on: SNB-19 CNS
# Protocol Text: NCI tumour cell line growth inhibition, 48 h

| Compound | Assayed System | TGI |
| --- | --- | --- |
| COc1ccc(C(OCC2OC(n3ccc(Oc4c(F)c(F)c(F)c(F)c4F)nc3=O)CC2OP(OCCC#N)N(C(C)C)C(C)C)(c2ccccc2)c2ccc(OC)cc2)cc1 (stereo not given) | SNB-19 CNS | > 100 µM |
| O=C(Nc1ccc(Oc2cccc(Cl)c2)c(Cl)c1)c1cccnc1 | SNB-19 CNS | > 50 µM |
| c1ccc(C2C3=C(CCCC3)Nc3nnnn32)cc1 (stereo not given) | SNB-19 CNS | > 100 µM |
| CCN(CC)C(=O)c1ccc(C)c(N=NN(C)C)c1 | SNB-19 CNS | > 100 µM |
| CN(C)CC1CCCCCCCCCCC1=O (stereo not given) | SNB-19 CNS | > 100 µM |

---

In this section we review reported TGI values for a set of molecules.
# Test system: K-562 leukemia
# Protocol Text: NCI tumour cell line growth inhibition, 48 h

| Molecule | Assayed System | TGI |
| --- | --- | --- |
| CC(=O)OC1CC2C(C)(C)C(=O)C=C[C@]2(C)C2CCC3(C)C(=CCC3[C@H](CO)C[C@H](O)C(=O)C(C)(C)O)[C@]12C (stereo not given in full) | K-562 leukemia | > 100 µM |
| Cc1cccc(-c2cc(=O)c3cc(C)cnc3[nH]2)c1 | K-562 leukemia | > 33.3 µM |
| O=C(N/N=C\c1cc(Br)cc(Br)c1O)N/N=C/c1cc(Br)cc(Br)c1O | K-562 leukemia | 14.3 µM |
| O=C(N(C1=CCCC1)N(c1ccccc1)c1ccccc1)C(F)(F)F | K-562 leukemia | 68.7 µM |
| c1ccc2c(c1)[C@@H]1O[C@@H]1[C@@]13O[C@@]21[C@H]1O[C@H]1c1ccccc13 | K-562 leukemia | 41.7 µM |
| c1ccc(-c2nn(-c3ccccc3)[n+](-c3ccccc3-c3ccccc3)n2)cc1 | K-562 leukemia | 15.3 µM |
| N#Cc1nc(C(=O)c2ccccc2)oc1N | K-562 leukemia | > 100 µM |
| O=S1(=O)OCCOS(=O)(=O)C1S(=O)(=O)c1cccc2ccccc12 | K-562 leukemia | > 100 µM |
| CN(C)CC1CCCCCCCCCCC1=O (stereo not given) | K-562 leukemia | > 100 µM |
| O=C(/C=C/c1ccc(OCCCOc2ccc(/C=C/C(=O)c3ccc(Cl)cc3)cc2)cc1)c1ccc(Cl)cc1 | K-562 leukemia | > 100 µM |
